- assayTarget: TRIM66-WT965-1160 (Homo sapiens)
- Construct: ITC titration: titrating TRIM66-WT965-1160 with various histone H3 peptides; GST (N, cleaved yes)
- methodDescription: ITC, PHD-Bromodomain wild type
- experimentalConditions: ITC, MicroCal PEAQ-ITC, 25 °C, 20 mM Tris, 100 mM NaCl, pH 7.5; single measurement, error from curve fit; Weak binding = ITC curves cannot be fitted reliably; N.D. = no detectable binding
endpointName: Kd (µM)
Answer format: numeric, µM implied, no suffix.

Notebook: C[C@H](N)C(=O)N[C@@H](CCCNC(=N)N)C(=O)N[C@H](C(=O)N[C@@H](CCCCN)C(=O)N[C@@H](CCC(N)=O)C(=O)N[C@H](C(=O)N[C@@H](C)C(=O)N[C@@H](CCCNC(=N)N)C(=O)N[C@@H](CCCCN)C(=O)N[C@@H](CO)C(=O)N[C@H](C(=O)NCC(=O)O)[C@@H](C)O)[C@@H](C)O)[C@@H](C)O , Kd read as 15.7

// CNC(=N)NCCC[C@H](NC(=O)[C@H](C)N)C(=O)N[C@H](C(=O)N[C@@H](CCCCN)C(=O)N[C@@H](CCC(N)=O)C(=O)N[C@H](C(=O)N[C@@H](C)C(=O)N[C@@H](CCCNC(=N)N)C(=O)N[C@@H](CCCCN)C(=O)N[C@@H](CO)C(=O)N[C@H](C(=O)NCC(=O)O)[C@@H](C)O)[C@@H](C)O)[C@@H](C)O : Kd value = 72.4

Per the record, CNCCCC[C@H](NC(=O)[C@@H](NC(=O)[C@H](CCCNC(=N)N)NC(=O)[C@H](C)N)[C@@H](C)O)C(=O)N[C@@H](CCC(N)=O)C(=O)N[C@H](C(=O)N[C@@H](C)C(=O)N[C@@H](CCCNC(=N)N)C(=O)N[C@@H](CCCCN)C(=O)N[C@@H](CO)C(=O)N[C@H](C(=O)NCC(=O)O)[C@@H](C)O)[C@@H](C)O has Kd of 42.8

The compound listed as C[C@H](N)C(=O)N[C@@H](CCCNC(=N)N(C)C)C(=O)N[C@H](C(=O)N[C@@H](CCCCN)C(=O)N[C@@H](CCC(N)=O)C(=O)N[C@H](C(=O)N[C@@H](C)C(=O)N[C@@H](CCCNC(=N)N)C(=O)N[C@@H](CCCCN)C(=O)N[C@@H](CO)C(=O)N[C@H](C(=O)NCC(=O)O)[C@@H](C)O)[C@@H](C)O)[C@@H](C)O has a reported Kd of 110

Looking up CC[C@H](C)[C@H](NC(=O)[C@H](CCC(=O)O)NC(=O)[C@H](CCCNC(=N)N)NC(=O)[C@@H](N)CC(C)C)C(=O)N[C@@H](CCCNC(=N)N)C(=O)N[C@@H](CCCNC(=N)N)C(=O)N[C@@H](Cc1ccc(O)cc1)C(=O)N[C@@H](CCC(N)=O)C(=O)N[C@@H](CCCCNC(C)=O)C(=O)N[C@@H](CO)C(=O)O [H3_48-57K56ac] , I found its Kd recorded as 109
